Please provide measured NanoBRET Abs IC50 for the entries that follow.
Molecular target: T1, B-cat-Halo (beta-catenin HaloTag construct transfected into HEK293 cells) (UniProt P35222 1-781)
T1 sequence (looked up): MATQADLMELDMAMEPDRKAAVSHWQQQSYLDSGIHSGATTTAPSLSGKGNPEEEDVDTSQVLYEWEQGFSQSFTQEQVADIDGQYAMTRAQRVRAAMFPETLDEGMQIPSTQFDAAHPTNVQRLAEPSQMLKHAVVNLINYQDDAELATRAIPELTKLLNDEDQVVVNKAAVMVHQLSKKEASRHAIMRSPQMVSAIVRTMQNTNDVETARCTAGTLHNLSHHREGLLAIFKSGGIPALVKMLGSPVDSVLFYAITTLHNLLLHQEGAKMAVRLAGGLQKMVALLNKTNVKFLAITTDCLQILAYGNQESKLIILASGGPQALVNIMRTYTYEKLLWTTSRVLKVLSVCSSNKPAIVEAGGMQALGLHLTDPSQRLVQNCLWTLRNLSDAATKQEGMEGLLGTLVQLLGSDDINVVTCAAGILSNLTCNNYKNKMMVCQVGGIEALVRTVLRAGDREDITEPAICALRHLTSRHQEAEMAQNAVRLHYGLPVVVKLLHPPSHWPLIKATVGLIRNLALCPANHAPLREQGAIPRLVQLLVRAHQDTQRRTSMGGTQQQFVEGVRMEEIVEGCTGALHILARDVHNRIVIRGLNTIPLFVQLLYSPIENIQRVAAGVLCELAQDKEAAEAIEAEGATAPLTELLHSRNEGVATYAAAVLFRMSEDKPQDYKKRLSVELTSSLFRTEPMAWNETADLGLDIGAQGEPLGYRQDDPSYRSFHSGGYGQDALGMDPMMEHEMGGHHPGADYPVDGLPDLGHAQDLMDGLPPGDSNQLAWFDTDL
Assay: cell-based or functional assay
Starred links: 1 amine or outer side, 2 acyl side, 3 side chain; linkers in the order of their positions; H or OH if unused. Positions of bridges follow the written chain, without caps; N, C: chain ends. Non-standard residues stand in square brackets, D forms with d. Primed or numbered codes have the meaning given here. B5(4) = 2,2-bis(4-pentenyl)glycine = 2-amino-2-(pent-4-en-1-yl)hept-6-enoic acid (stitching residue), C=CCCCC(CCCC=C)(N[*:1])C(=O)[*:2]; B5(12) = 2-amino-2-(pent-4-en-1-yl)hept-6-enoic acid (two olefin side chains), C=CCCCC(CCCC=C)(N[*:1])C(=O)[*:2]; Phe(3-COOH) = N[C@@H](Cc1cccc(C(=O)O)c1)C(=O)O; Bta = N[C@@H](Cc1csc2ccccc12)C(=O)O; αAllylPro = C=CC[C@@]1(C(=O)O)CCCN1; tBuAla = CC(C)(C)C[C@H](N)C(=O)O; 3Thi = N[C@@H](Cc1ccsc1)C(=O)O; PyrS2(4) = not defined here; Aib = CC(C)(N)C(=O)O
Answer with a number only, understood to be in µM.

Exercise: Fill in NanoBRET Abs IC50 for record Ac-[αAllylPro]D[tBuAla][B5(12)]D[Phe(3-COOH)][Aib]AFL[PyrS2(4)][3Thi][Bta]F-NH2 (staple 1-4, 4-11; not fully specified; printed as Ac-PL3-Asp-Npg-B5-Asp-3COOHF-Aib-Ala-Phe-Leu-PyrS2-3Thi-BztA-Phe-NH2; reading uncertain) [I-1914]
Key: 6.4

Exercise: Fill in NanoBRET Abs IC50 for record Ac-[αAllylPro]D[tBuAla][B5(4)]D[Phe(3-COOH)]HAFL[PyrS2(4)][3Thi][Bta]A-NH2 (staple 1-4, 4-11; not fully specified; printed as Ac-PL3-Asp-Npg-B5-Asp-3COOHF-His-Ala-Phe-Leu-PyrS2-3Thi-BztA-Ala-NH2; reading uncertain) [I-1916]
Key: 9.2
